RECORDED METRIC: melting point

These solved cases illustrate the format of a correct answer.
INSERT INTO results (compound, reported_result) VALUES
  ('CC(C)c1cc(Oc2nnc(Cl)cc2O)cc(C(C)C)c1 [Compound No. 642]', '231 to 235 °C'),
  ('Cc1ccccc1C(=O)Oc1cc(Cl)nnc1Oc1cccc(C(C)(C)C)c1', '63 to 64 °C'),
  ('Cc1ccc(S(=O)(=O)Oc2cc(Cl)nnc2Oc2ccccc2C(C)C)cc1', '99 to 100 °C'),
  ('Cc1ccccc1C(=O)Oc1cc(Cl)nnc1Oc1cccc2ccccc12', '133 to 134 °C'),
  ('Cc1cc(C)c(Cl)c(Oc2nnc(Cl)cc2O)c1C', '298 to 300 °C');

In the following, a different compound is considered.
Field melting point (entry `CC(C)c1cccc(I)c1Oc1nnc(Cl)cc1O` ) reads 250 to 255 °C

Reference source: patent US7964531B2
